Activity calls are given as the source filed them.
Consider the following compounds; for each one, report its IC50.

## Input Find IC50 for "O=C(c1cc2ncc(Br)cn2n1)N1CCN(C(=O)c2ccco2)CC1" on Estrogen receptor beta (Homo sapiens) and write it down.
Sequence (Q92731 whole entry): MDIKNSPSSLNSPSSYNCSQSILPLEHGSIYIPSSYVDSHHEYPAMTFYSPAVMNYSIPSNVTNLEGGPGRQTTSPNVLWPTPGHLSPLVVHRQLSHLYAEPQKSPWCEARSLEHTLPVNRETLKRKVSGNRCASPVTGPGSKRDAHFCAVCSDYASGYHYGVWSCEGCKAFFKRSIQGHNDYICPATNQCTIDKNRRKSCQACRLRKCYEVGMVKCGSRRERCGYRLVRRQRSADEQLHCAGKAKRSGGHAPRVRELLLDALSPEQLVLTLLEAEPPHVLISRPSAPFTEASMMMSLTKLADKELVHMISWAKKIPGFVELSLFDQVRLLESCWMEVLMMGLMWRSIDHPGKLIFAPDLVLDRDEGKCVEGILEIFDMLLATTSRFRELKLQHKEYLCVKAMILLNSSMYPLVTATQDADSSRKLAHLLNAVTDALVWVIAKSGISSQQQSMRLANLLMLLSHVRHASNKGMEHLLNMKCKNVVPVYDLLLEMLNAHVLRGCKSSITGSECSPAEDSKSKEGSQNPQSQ
## Output 2.73 µM (active)

## Input Quote IC50 with test system Estrogen receptor beta (Homo sapiens) for "CCOc1c(C(N)=O)c(-c2ccccc2)c2c(O)nc3ccccc3n12"
## Output 33.6 µM (not active)

## Input Report value only: IC50, Estrogen receptor beta (Homo sapiens), "O=C(Oc1ccc2c(c1)OCC2=O)c1ccccc1"
## Output > 50 µM (not active)

## Input GET IC50 | system: Estrogen receptor beta (Homo sapiens) | item: "CCOc1ccc(C(=O)CCN2CCCCC2)cc1"
## Output > 50 µM (not active)

## Input Fill in: IC50 on Estrogen receptor beta (Homo sapiens), entry "CCOc1ccc2[nH]c(=O)c(=O)[nH]c2c1"
## Output > 50 µM (not active)

Each recorded value in this set is attributed to ChEMBL document CHEMBL1201862.
